- System: velvetleaf (Abutilon theophrasti, ABUTH)
- experiment_summary: Pre-emerge test, greenhouse herbicide activity screening
- Format: in vivo
- cond: pre-emerge, 250 g ai/ha, 14 days after application, rating scale 0-100
In this section, each of the compounds is paired with its reported phytotoxicity rating ABUTH.
The reply should be a number, written without any unit.

Known results for compounds:
compound	readout_value
COc1c(Cl)cc(F)c(-n2c(=O)cc(C(F)(F)F)n(C)c2=O)c1NNC(=O)Oc1ccccc1 [15-7]	100
CCCOC(=O)C(Cl)Cc1c(OCC)c(Cl)cc(F)c1-n1c(=O)cc(C(F)(F)F)n(C)c1=O (centres unmarked) [14-66]	100
CCOC(=O)C(Cl)(CC(=O)OC)Cc1c(OC)c(Cl)cc(F)c1-n1c(=O)cc(C(F)(F)F)n(C)c1=O (centres unmarked) [14-50]	50
COc1c(Cl)cc(F)c(-n2c(=O)cc(C(F)(F)F)n(C)c2=O)c1Sc1ccc2ccccc2c1 [17-4]	60
COc1c(Cl)cc(F)c(-n2c(=O)cc(C(F)(F)F)n(C)c2=O)c1N [Compound 1-4]	100

Ask | Supply phytotoxicity rating ABUTH value. Item: CCOC(=O)C(Cl)(C#N)Cc1c(OC)c(Cl)cc(F)c1-n1c(=O)cc(C(F)(F)F)n(C)c1=O (centres unmarked) [14-51]
Reply | 100

Ask | Output measured phytotoxicity rating ABUTH for this item: COc1c(Cl)cc(F)c(-n2c(=O)cc(C(F)(F)F)n(C)c2=O)c1NN [Compound 15-1]
Reply | 100

Ask | Could you please provide reported phytotoxicity rating ABUTH for CCOC(=O)C(Cl)Cc1c(C)c(Cl)cc(F)c1-n1c(=O)cc(C(F)(F)F)n(C)c1=O (centres unmarked) [14-54] ? Thanks!
Reply | 70
